# Target: HLA-A*01:01 (Homo sapiens, UniProt P04439, A114D/A174V/A182V/D101N/D185E/E176A/E190D/L180R/Q94H/R68K/S129P/T187R/V100A/V91M/W191G)
# Assay details: MHC binding assay: UV-ligand exchange, ELISA of stabilized MHC complexes (peptide exchange yield)
# Conditions used: binding to HLA-A*01:01, UV-ligand exchange
Assay readout: Peptide exchange

Would you please look over these solved cases?
[[record]]
substance = "27 (PSEVPVDSHY; listed as Homo sapiens) [compound 27]"
assay_readout = "Peptide exchange"
reported_result = "++++ (>75% = ++++)"

[[record]]
substance = "233 (RINSATGQY; listed as Homo sapiens) [compound 233]"
assay_readout = "Peptide exchange"
reported_result = "++ (>20% = ++)"

[[record]]
substance = "283 (ETILVSSSY; listed as Homo sapiens) [compound 283]"
assay_readout = "Peptide exchange"
reported_result = "++ (>20% = ++)"

[[record]]
substance = "75 (FTDYELKAY; listed as Homo sapiens) [compound 75]"
assay_readout = "Peptide exchange"
reported_result = "++++ (>75% = ++++)"


Which Peptide exchange is reported for this substance? 259 (APDEVVALL; listed as Homo sapiens) [compound 259] ++ (>20% = ++)

Which Peptide exchange is reported for this substance? 328 (LLDEDNNIKL; listed as Homo sapiens) [compound 328] ++ (>20% = ++)

Which Peptide exchange is reported for this substance? 224 (RTDEGDNRVW; listed as Homo sapiens) [compound 224] ++ (>20% = ++)
